system: HeLa Kyoto; test: melting temperature (median over replicates), in situ; higher = more thermally stable; conditions: cell cycle stage: G1/S
reported-metric: melting temperature
Report as: number unit

MGRTSKDKRDVYYRLAKENGWRARSAFKLLQLDKEFQLFQGVTRAVDLCAAPGSWSQVLSQKIGGQGSGHVVAVDLQAMAPLPGVVQIQGDITQLSTAKEIIQHFKGCPADLVVCDGAPDVTGLHDVDEYMQAQLLLAALNIATHVLKPGGCFVAKIFRGRDVTLLYSQLQVFFSSVLCAKPRSSRNSSIEAFAVCQGYDPPEGFIPDLSKPLLDHSYDPDFNQLDGPTRIIVPFVTCGDLSSYDSDRSYPLDLEGGSEYKYTPPTQPPISPPYQEACTLKRKGQLAKEIRPQDCPISRVDTFPQPLAAPQCHTLLAPEMEDNEMSCSP [FTSJ1]; 51.4 °C
MEPLAAYPLKCSGPRAKVFAVLLSIVLCTVTLFLLQLKFLKPKINSFYAFEVKDAKGRTVSLEKYKGKVSLVVNVASDCQLTDRNYLGLKELHKEFGPSHFSVLAFPCNQFGESEPRPSKEVESFARKNYGVTFPIFHKIKILGSEGEPAFRFLVDSSKKEPRWNFWKYLVNPEGQVVKFWKPEEPIEVIRPDIAALVRQVIIKKKEDL [GPX8]; 52.8 °C
MQPQSVLHSGYFHPLLRAWQTATTTLNASNLIYPIFVTDVPDDIQPITSLPGVARYGVKRLEEMLRPLVEEGLRCVLIFGVPSRVPKDERGSAADSEESPAIEAIHLLRKTFPNLLVACDVCLCPYTSHGHCGLLSENGAFRAEESRQRLAEVALAYAKAGCQVVAPSDMMDGRVEAIKEALMAHGLGNRVSVMSYSAKFASCFYGPFRDAAKSSPAFGDRRCYQLPPGARGLALRAVDRDVREGADMLMVKPGMPYLDIVREVKDKHPDLPLAVYHVSGEFAMLWHGAQAGAFDLKAAVLEAMTAFRRAGADIIITYYTPQLLQWLKEE [ALAD]; 57 °C
MAGQHLPVPRLEGVSREQFMQHLYPQRKPLVLEGIDLGPCTSKWTVDYLSQVGGKKEVKIHVAAVAQMDFISKNFVYRTLPFDQLVQRAAEEKHKEFFVSEDEKYYLRSLGEDPRKDVADIRKQFPLLKGDIKFPEFFKEEQFFSSVFRISSPGLQLWTHYDVMDNLLIQVTGKKRVVLFSPRDAQYLYLKGTKSEVLNIDNPDLAKYPLFSKARRYECSLEAGDVLFIPALWFHNVISEEFGVGVNIFWKHLPSECYDKTDTYGNKDPTAASRAAQILDRALKTLAELPEEYRDFYARRMVLHIQDKAYSKNSE [TYW5]; 53.8 °C

Now let's try a different one.
Q) Quickly give me recorded melting temperature for MEDPTLYIVERPLPGYPDAEAPEPSSAGAQAAEEPSGAGSEELIKSDQVNGVLVLSLLDKIIGAVDQIQLTQAQLEERQAEMEGAVQSIQGELSKLGKAHATTSNTVSKLLEKVRKVSVNVKTVRGSLERQAGQIKKLEVNEAELLRRRNFKVMIYQDEVKLPAKLSISKSLKESEALPEKEGEELGEGERPEEDAAALELSSDEAVEVEEVIEESRAERIKRSGLRRVDDFKKAFSKEKMEKTKVRTRENLEKTRLKTKENLEKTRHTLEKRMNKLGTRLVPAERREKLKTSRDKLRKSFTPDHVVYARSKTAVYKVPPFTFHVKKIREGQVEVLKATEMVEVGADDDEGGAERGEAGDLRRGSSPDVHALLEITEESDAVLVDKSDSD [PTRF]
A) 54.4 °C

---

solubility change mitosis (log2) values, listed per item
test system: HeLa Kyoto; assay: solubility change mitosis vs G1/S (difference of NP-40 vs SDS log2 ratios) (log2 ratio difference); higher = more soluble in mitosis
Give the figure only, with no unit attached.

Q) Let me know recorded solubility change mitosis (log2) for MAETYDFLFKFLVIGSAGTGKSCLLHQFIENKFKQDSNHTIGVEFGSRVVNVGGKTVKLQIWDTAGQERFRSVTRSYYRGAAGALLVYDITSRETYNSLAAWLTDARTLASPNIVVILCGNKKDLDPEREVTFLEASRFAQENELMFLETSALTGENVEEAFLKCARTILNKIDSGELDPERMGSGIQYGDASLRQLRQPRSAQAVAPQPCGC [RAB4B] , thanks.
A) -0.29

Q) Return value of solubility change mitosis (log2) for input MRLPRRAALGLLPLLLLLPPAPEAAKKPTPCHRCRGLVDKFNQGMVDTAKKNFGGGNTAWEEKTLSKYESSEIRLLEILEGLCESSDFECNQMLEAQEEHLEAWWLQLKSEYPDLFEWFCVKTLKVCCSPGTYGPDCLACQGGSQRPCSGNGHCSGDGSRQGDGSCRCHMGYQGPLCTDCMDGYFSSLRNETHSICTACDESCKTCSGLTNRDCGECEVGWVLDEGACVDVDECAAEPPPCSAAQFCKNANGSYTCEECDSSCVGCTGEGPGNCKECISGYAREHGQCADVDECSLAEKTCVRKNENCYNTPGSYVCVCPDGFEETEDACVPPAEAEATEGESPTQLPSREDL [CRELD2] , no commentary.
A) -0.0918

Q) Name the recorded solubility change mitosis (log2) of the item MASASGAMAKHEQILVLDPPTDLKFKGPFTDVVTTNLKLRNPSDRKVCFKVKTTAPRRYCVRPNSGIIDPGSTVTVSVMLQPFDYDPNEKSKHKFMVQTIFAPPNTSDMEAVWKEAKPDELMDSKLRCVFEMPNENDKLNDMEPSKAVPLNASKQDGPMPKPHSVSLNDTETRKLMEECKRLQGEMMKLSEENRHLRDEGLRLRKVAHSDKPGSTSTASFRDNVTSPLPSLLVVIAAIFIGFFLGKFIL [VAPA] in your answer.
A) 0.0815

Q) Give solubility change mitosis (log2) for the following substance: MADIIARLREDGIQKRVIQEGRGELPDFQDGTKATFHYRTLHSDDEGTVLDDSRARGKPMELIIGKKFKLPVWETIVCTMREGEIAQFLCDIKHVVLYPLVAKSLRNIAVGKDPLEGQRHCCGVAQMREHSSLGHADLDALQQNPQPLIFHMEMLKVESPGTYQQDPWAMTDEEKAKAVPLIHQEGNRLYREGHVKEAAAKYYDAIACLKNLQMKEQPGSPEWIQLDQQITPLLLNYCQCKLVVEEYYEVLDHCSSILNKYDDNVKAYFKRGKAHAAVWNAQEAQADFAKVLELDPALAPVVSRELRALEARIRQKDEEDKARFRGIFSH [AIP]
A) -0.0524

Q) Return value of solubility change mitosis (log2) for input MAGQEDPVQREIHQDWANREYIEIITSSIKKIADFLNSFDMSCRSRLATLNEKLTALERRIEYIEARVTKGETLT [BRK1] , no commentary.
A) 0.228

---

system: HeLa Kyoto; assay: solubility in G1/S (NP-40 vs SDS abundance) (log2 ratio); higher = more soluble; conditions: cell cycle stage: G1/S
reported-metric: solubility in G1/S (log2)
Keep it simple and answer with nothing but the number.

MDALQLANSAFAVDLFKQLCEKEPLGNVLFSPICLSTSLSLAQVGAKGDTANEIGQVLHFENVKDVPFGFQTVTSDVNKLSSFYSLKLIKRLYVDKSLNLSTEFISSTKRPYAKELETVDFKDKLEETKGQINNSIKDLTDGHFENILADNSVNDQTKILVVNAAYFVGKWMKKFSESETKECPFRVNKTDTKPVQMMNMEATFCMGNIDSINCKIIELPFQNKHLSMFILLPKDVEDESTGLEKIEKQLNSESLSQWTNPSTMANAKVKLSIPKFKVEKMIDPKACLENLGLKHIFSEDTSDFSGMSETKGVALSNVIHKVCLEITEDGGDSIEVPGARILQHKDELNADHPFIYIIRHNKTRNIIFFGKFCSP [SERPINB5]; 0.403

Q) Could you please provide reported solubility in G1/S (log2) for MPAPPCASCHAARAALRRPLSGQALCGACFCAAFEAEVLHTVLAGRLLPPGAVVAVGASGGKDSTVLAHVLRALAPRLGISLQLVAVDEGIGGYRDAALAAVRRQAARWELPLTVVAYEDLFGGWTMDAVARSTAGSGRSRSCCTFCGVLRRRALEEGARRVGATHIVTGHNADDMAETVLMNFLRGDAGRLARGGGLGSPGEGGALPRCRPLQFASQKEVVLYAHFRRLDYFSEECVYAPEAFRGHARDLLKRLEAARPSAVLDLVHSAERLALAPAARPPRPGACSRCGALASRALCQACALLDGLNRGRPRLAIGKGRRGLDEEATPGTPGDPARPPASKAVPTF [CTU1] ? Thanks!
A) 0.107

---

tested on: HeLa Kyoto; test: melting temperature (median over replicates), in situ; higher = more thermally stable; conditions: cell cycle stage: G1/S
reported-metric: melting temperature
Please provide the amount together with its unit, number first.

Examples from the recorded data:
MEEVPHDCPGADSAQAGRGASCQGCPNQRLCASGAGATPDTAIEEIKEKMKTVKHKILVLSGKGGVGKSTFSAHLAHGLAEDENTQIALLDIDICGPSIPKIMGLEGEQVHQSGSGWSPVYVEDNLGVMSVGFLLSSPDDAVIWRGPKKNGMIKQFLRDVDWGEVDYLIVDTPPGTSDEHLSVVRYLATAHIDGAVIITTPQEVSLQDVRKEINFCRKVKLPIIGVVENMSGFICPKCKKESQIFPPTTGGAELMCQDLEVPLLGRVPLDPLIGKNCDKGQSFFIDAPDSPATLAYRSIIQRIQEFCNLHQSKEENLISS [NUBP1]; 52.4 °C
MNRLPDDYDPYAVEEPSDEEPALSSSEDEVDVLLHGTPDQKRKLIRECLTGESESSSEDEFEKEMEAELNSTMKTMEDKLSSLGTGSSSGNGKVATAPTRYYDDIYFDSDSEDEDRAVQVTKKKKKKQHKIPTNDELLYDPEKDNRDQAWVDAQRRGYHGLGPQRSRQQQPVPNSDAVLNCPACMTTLCLDCQRHESYKTQYRAMFVMNCSINKEEVLRYKASENRKKRRVHKKMRSNREDAAEKAETDVEEIYHPVMCTECSTEVAVYDKDEVFHFFNVLASHS [EAPP]; 50.3 °C

We now examine a further sequence.
Q) Return melting temperature for the following sequence: MSYDRAITVFSPDGHLFQVEYAQEAVKKGSTAVGVRGRDIVVLGVEKKSVAKLQDERTVRKICALDDNVCMAFAGLTADARIVINRARVECQSHRLTVEDPVTVEYITRYIASLKQRYTQSNGRRPFGISALIVGFDFDGTPRLYQTDPSGTYHAWKANAIGRGAKSVREFLEKNYTDEAIETDDLTIKLVIKALLEVVQSGGKNIELAVMRRDQSLKILNPEEIEKYVAEIEKEKEENEKKKQKKAS [PSMA7]
A) 59 °C
